details: in acetonitrile, 313.15 K
measurement_label: solubility (mole fraction)

- smiles_structure: "Nc1ccc(S(=O)(=O)Nc2ncccn2)cc1"
  measurement_label: "solubility (mole fraction)"
  assay_value: 0.000865

====

settings: in methanol, 308.15 K

- smiles_structure: "Nc1ccc(S(=O)(=O)Nc2ncccn2)cc1"
  solubility (mole fraction): 0.00029

====

conditions: in methanol, 298.15 K
measurement_label: solubility (mole fraction)

- smiles_structure: "Nc1ccc(S(=O)(=O)Nc2ncccn2)cc1"
  measurement_label: "solubility (mole fraction)"
  assay_value: 0.000191

====

settings: in acetonitrile, 288.15 K

- smiles_structure: "Nc1ccc(S(=O)(=O)Nc2ncccn2)cc1"
  solubility (mole fraction): 0.000465

====

conditions: in methanol, 318.15 K
measurement_label: solubility (mole fraction)

- smiles_structure: "Nc1ccc(S(=O)(=O)Nc2ncccn2)cc1"
  measurement_label: "solubility (mole fraction)"
  assay_value: 0.000384

====

details: in acetonitrile, 298.15 K
measurement_label: solubility (mole fraction)

- smiles_structure: "Nc1ccc(S(=O)(=O)Nc2ncccn2)cc1"
  assay_value: 0.000602

====

conditions: in acetonitrile, 293.15 K
measurement_label: solubility (mole fraction)

- smiles_structure: "Nc1ccc(S(=O)(=O)Nc2ncccn2)cc1"
  measurement_label: "solubility (mole fraction)"
  assay_value: 0.000532

====

details: in methanol, 293.15 K

- smiles_structure: "Nc1ccc(S(=O)(=O)Nc2ncccn2)cc1"
  solubility (mole fraction): 0.000162

====

settings: in methanol, 313.15 K

- smiles_structure: "Nc1ccc(S(=O)(=O)Nc2ncccn2)cc1"
  solubility (mole fraction): 0.00034

====

details: in methanol, 288.15 K
measurement_label: solubility (mole fraction)

- smiles_structure: "Nc1ccc(S(=O)(=O)Nc2ncccn2)cc1"
  assay_value: 0.000132
